Provide the recorded inhibition at 1 µM for the entries that follow.
- tested.system: S. aureus GyrB ATPase (Staphylococcus aureus)
- Sequence (P0AES4 whole entry): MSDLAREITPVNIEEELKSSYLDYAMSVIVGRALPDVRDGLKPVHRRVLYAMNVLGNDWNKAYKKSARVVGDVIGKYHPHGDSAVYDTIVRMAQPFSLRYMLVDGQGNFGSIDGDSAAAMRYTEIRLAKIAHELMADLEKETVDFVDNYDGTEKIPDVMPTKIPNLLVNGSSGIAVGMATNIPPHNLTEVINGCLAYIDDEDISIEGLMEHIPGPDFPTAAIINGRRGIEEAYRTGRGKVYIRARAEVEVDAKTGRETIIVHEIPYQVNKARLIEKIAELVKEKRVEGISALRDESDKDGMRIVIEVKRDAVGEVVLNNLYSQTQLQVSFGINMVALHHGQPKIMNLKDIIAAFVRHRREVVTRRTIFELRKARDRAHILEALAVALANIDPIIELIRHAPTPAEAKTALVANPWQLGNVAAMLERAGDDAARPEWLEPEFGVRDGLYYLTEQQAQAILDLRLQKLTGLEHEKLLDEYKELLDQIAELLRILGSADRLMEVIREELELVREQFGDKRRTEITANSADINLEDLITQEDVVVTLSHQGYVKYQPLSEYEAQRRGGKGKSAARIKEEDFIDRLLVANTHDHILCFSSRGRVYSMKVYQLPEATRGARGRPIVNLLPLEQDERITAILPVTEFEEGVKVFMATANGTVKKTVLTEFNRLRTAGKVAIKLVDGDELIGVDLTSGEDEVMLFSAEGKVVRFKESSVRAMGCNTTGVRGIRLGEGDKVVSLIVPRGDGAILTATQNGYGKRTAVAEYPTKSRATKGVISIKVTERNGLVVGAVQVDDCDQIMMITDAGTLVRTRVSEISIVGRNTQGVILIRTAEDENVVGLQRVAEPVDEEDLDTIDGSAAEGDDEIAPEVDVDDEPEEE
- Sequence (P0A0K8 whole entry): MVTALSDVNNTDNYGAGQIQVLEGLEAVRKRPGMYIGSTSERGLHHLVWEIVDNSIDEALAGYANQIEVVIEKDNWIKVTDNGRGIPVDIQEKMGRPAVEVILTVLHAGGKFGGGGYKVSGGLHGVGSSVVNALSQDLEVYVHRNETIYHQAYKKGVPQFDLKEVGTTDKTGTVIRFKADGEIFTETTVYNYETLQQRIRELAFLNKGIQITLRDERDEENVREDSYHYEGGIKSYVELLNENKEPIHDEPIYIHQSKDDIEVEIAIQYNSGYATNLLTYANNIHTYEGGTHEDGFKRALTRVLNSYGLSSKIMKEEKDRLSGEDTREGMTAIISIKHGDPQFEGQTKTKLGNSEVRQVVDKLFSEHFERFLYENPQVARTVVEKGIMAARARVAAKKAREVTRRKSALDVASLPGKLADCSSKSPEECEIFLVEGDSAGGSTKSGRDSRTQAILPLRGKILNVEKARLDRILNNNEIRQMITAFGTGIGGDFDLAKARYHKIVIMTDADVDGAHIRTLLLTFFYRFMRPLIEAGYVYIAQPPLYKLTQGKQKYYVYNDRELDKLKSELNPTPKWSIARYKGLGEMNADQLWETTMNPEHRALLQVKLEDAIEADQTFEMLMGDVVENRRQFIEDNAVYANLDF
- test.description: S. aureus GyrB ATPase inhibition (ammonium molybdate/malachite green phosphate detection)
- Format: biochemical
- assay.context: compound concentration of 1 μM (unless otherwise noted)
- Description: E. coli GyrB ATPase Inhibition Activity: Compounds can be tested for inhibition of E. coli GyrB ATPase activity using an ammonium molybdate/malachite green-based phosphate detection assay (Lanzetta, P. A., L. J. Alvarez, P. S. Reinach, and O. A. Candia, 1979, 100: 95-97). […] An IC50 measurement of compound potency for each compound can be determined from reactions performed in the presence of 10 different compound concentrations. […]
Give bare numbers, in %.

Record excerpt, results attached:
compound="CO[C@H]1CN(c2nc(-c3cnc(OCCN4CCN(C)CC4)cn3)c(C(=O)O)s2)CC[C@H]1NC(=O)c1[nH]c(C)c(Cl)c1Cl [Example 64]" tested_system="S. aureus GyrB ATPase (Staphylococcus aureus)" property_measured="inhibition at 1 µM" scale_unit=% assay_value=104
compound="CO[C@H]1CN(c2nc(-c3cnc(N4CCOCC4)cn3)c(C(=O)O)s2)CC[C@H]1NC(=O)c1[nH]c(C)c(Cl)c1Cl [Example 125]" tested_system="S. aureus GyrB ATPase (Staphylococcus aureus)" property_measured="inhibition at 1 µM" scale_unit=% assay_value=111
compound="Cc1[nH]c(C(=O)N[C@@H]2CCN(c3nc(-c4cnc(N5CCN(CC(C)C)CC5)cn4)c(C(=O)O)s3)C[C@@H]2C)c(Cl)c1Cl [Example 176]" tested_system="S. aureus GyrB ATPase (Staphylococcus aureus)" property_measured="inhibition at 1 µM" scale_unit=% assay_value=108
compound="Cc1[nH]c(C(=O)N[C@@H]2CCN(c3nc(-c4cnccn4)c(C(=O)O)s3)C[C@@H]2C)cc1Cl [Example 21]" tested_system="S. aureus GyrB ATPase (Staphylococcus aureus)" property_measured="inhibition at 1 µM" scale_unit=% assay_value=118
compound="CO[C@H]1CN(c2nc(-c3cnc(N4CCN(CC5CCCCC5)CC4)cn3)c(C(=O)O)s2)CC[C@H]1NC(=O)c1[nH]c(C)c(Cl)c1Cl [Example 136]" tested_system="S. aureus GyrB ATPase (Staphylococcus aureus)" property_measured="inhibition at 1 µM" scale_unit=% assay_value=104
compound="Cc1[nH]c(C(=O)N[C@@H]2CCN(c3nc(-c4cnc(N5CCCCC5)cn4)c(C(=O)O)s3)C[C@@H]2C)c(Cl)c1Cl [Example 165]" tested_system="S. aureus GyrB ATPase (Staphylococcus aureus)" property_measured="inhibition at 1 µM" scale_unit=% assay_value=107
compound="CO[C@H]1CN(c2nc(-c3cnc(OCCN(C)C)cn3)c(C(=O)O)s2)CC[C@H]1NC(=O)c1[nH]c(C)c(Cl)c1Cl [Example 63]" tested_system="S. aureus GyrB ATPase (Staphylococcus aureus)" property_measured="inhibition at 1 µM" scale_unit=% assay_value=104
compound="C=CCO[C@H]1CN(c2nc(-c3ncnn3C)c(C(=O)O)s2)CC[C@H]1NC(=O)c1[nH]c(C)c(Cl)c1C#N [Example 5]" tested_system="S. aureus GyrB ATPase (Staphylococcus aureus)" property_measured="inhibition at 1 µM" scale_unit=% assay_value=5
compound="CCO[C@H]1CN(c2nc(-c3cnc(N4CCN(CC5CCCCC5)CC4)cn3)c(C(=O)O)s2)CC[C@H]1NC(=O)c1[nH]c(C)c(Cl)c1Cl [Example 98]" tested_system="S. aureus GyrB ATPase (Staphylococcus aureus)" property_measured="inhibition at 1 µM" scale_unit=% assay_value=116
compound="CO[C@H]1CN(c2nc(-c3cnc(N4CCN(CC5CCCN(C)C5)CC4)cn3)c(C(=O)O)s2)CC[C@H]1NC(=O)c1[nH]c(C)c(Cl)c1Cl (stereo partly shown) [Example 135]" tested_system="S. aureus GyrB ATPase (Staphylococcus aureus)" property_measured="inhibition at 1 µM" scale_unit=% assay_value=98

Look up inhibition at 1 µM for the entries below, preserving their order.
1. CCO[C@H]1CN(c2nc(-c3cnc(NCCN4CCN(C)CC4)cn3)c(C(=O)O)s2)CC[C@H]1NC(=O)c1[nH]c(C)c(Cl)c1Cl [Example 95]
2. CCO[C@H]1CN(c2nc(-c3nccn3CCOC)c(C(=O)O)s2)CC[C@H]1NC(=O)c1[nH]c(C)c(Cl)c1Cl [Example 9]
3. CCO[C@H]1CN(c2nc(-c3cnc(N4CCN(CC5CCCO5)CC4)cn3)c(C(=O)O)s2)CC[C@H]1NC(=O)c1[nH]c(C)c(Cl)c1Cl (stereo partly shown) [Example 104]

114
98
105
